Sourced from PubChem BioAssay (NCATS)

Tested on: CP297
Experiment: qHTS profiling for inhibitors of Plasmodium falciparum proliferation (AID 504749); note: nearly all actives have a fitted effect of over 60% in size
Conditions: P. falciparum in erythrocytes, SYBR Green DNA, 72 h; series mostly up to 28.7 µM
Records with an inconclusive call do not appear. Active and inactive are the calls of the source. Calls come from the whole dose curve; as a rule, active = well fitted inhibition curve with a large enough effect; inconclusive = small, poorly fitted or top-dose-only effect; inactive = flat fitted curve, though single readings scatter. Bridge positions count the residues as written; N and C are the ends. Square brackets hold non-standard residues; d marks the D form. Peptide text beside a SMILES is read from it. * marks the point of attachment. Octanoyl(6-Me) = CCC(C)CCCCC(=O)*; Dab = NCC[CH](N)C(=O)O
Lab note: assign the record to one of active, inactive

Study these solved cases before continuing.
CCC(C)CCCCC(=O)NC(CCN)C(=O)NC(C(=O)NC(CCN)C(=O)NC1CCNC(=O)C(C(C)O)NC(=O)C(CCN)NC(=O)C(CCN)NC(=O)C(CC(C)C)NC(=O)C(Cc2ccccc2)NC(=O)C(CCN)NC1=O)C(C)O (configuration not stated) ({Octanoyl(6-Me)}-[Dab]T[Dab][Dab][Dab]FL[Dab][Dab]T; lactam 4-C; configuration not given here) : inactive
CN(C)CCCCCCN(C)C : inactive
CC(=O)O[C@@]12CO[C@@H]1C[C@H](O)[C@@]1(C)C(=O)[C@H](O)C3=C(C)[C@@H](OC(=O)C(O)[C@@H](NC(=O)OC(C)(C)C)c4ccccc4)C[C@@](O)([C@@H](OC(=O)c4ccccc4)[C@H]21)C3(C)C (some centres not stated) : active
Cc1cc(CC(C)CC(C)(C)C)n(O)c(=O)c1 (configuration not stated) : active
CCC(C)n1ncn(-c2ccc(N3CCN(c4ccc(OCC5COC(Cn6cncn6)(c6ccc(Cl)cc6Cl)O5)cc4)CC3)cc2)c1=O (configuration not stated) : inactive

# input Hello, I am checking results. What call was entered for CC(C)CN(C[C@@H](OP(=O)(O)O)[C@H](Cc1ccccc1)NC(=O)O[C@@H]1CCOC1)S(=O)(=O)c1ccc(N)cc1 ?
# output inactive

# input Hello, I am checking results. What call was entered for C/C=C\c1ccc(OC)cc1 ?
# output inactive

# input Hello, I am checking results. What call was entered for CCC(=O)O[C@@H](OP(=O)(CCCCc1ccccc1)CC(=O)N1C[C@H](C2CCCCC2)C[C@H]1C(=O)O)C(C)C (some centres not stated) ?
# output inactive

# input Hello, I am checking results. What call was entered for CC1CCC(C(C)C)C(OC(=O)c2ccccc2O)C1 (configuration not stated) ?
# output inactive

# input Hello, I am checking results. What call was entered for CC(=O)OC1CC2CCC1(C)C2(C)C (configuration not stated) ?
# output inactive

# input Hello, I am checking results. What call was entered for CC1(C)S[C@@H]2[C@H](NC(=O)COc3ccccc3)C(=O)N2[C@H]1C(=O)O ?
# output inactive

# input Hello, I am checking results. What call was entered for CN1CC[C@H](CN2c3ccccc3Sc3ccccc32)C1 ?
# output active
